biological target: yeast expressing human caspase-1/ASC, counter-screen read-out; test: CASP1-PYCARD signal inhibition in yeast, concentration-response, counterassay for NLRP3 inhibitor project (AID 488800)
Calls of active or inactive are those of the source. No cut-off is given here; in the data, nearly all actives have IC50 up to about 10 µM.
Possible outcomes: Y = active, N = inactive

molecule=CCN1/C(=C/C=C/c2oc3ccc(-c4ccccc4)cc3[n+]2CC)Oc2ccc(-c3ccccc3)cc21 testedtarget="yeast expressing human caspase-1/ASC, counter-screen read-out" classification=Y
molecule=CC(=O)Oc1c(I)cc(I)cc1C(=O)Nc1ccc(Cl)cc1 testedtarget="yeast expressing human caspase-1/ASC, counter-screen read-out" classification=Y
molecule=Nc1ccc(Oc2cc(N)cc(Oc3ccccc3)c2)cc1 testedtarget="yeast expressing human caspase-1/ASC, counter-screen read-out" classification=Y
molecule=CCN(CC)c1ccc2nc3ccc(N)cc3[n+](-c3ccccc3)c2c1 testedtarget="yeast expressing human caspase-1/ASC, counter-screen read-out" classification=Y
molecule=Cn1c(=O)c(C(=O)NNC(=O)c2ccccc2F)c(O)c2ccccc21 testedtarget="yeast expressing human caspase-1/ASC, counter-screen read-out" classification=Y
molecule=O=C(NCCC1=CCCCC1)c1c(O)nc2sccn2c1=O testedtarget="yeast expressing human caspase-1/ASC, counter-screen read-out" classification=Y
molecule=O=C(NNC(=S)NC(=O)c1ccc(Br)cc1)c1ccc([N+](=O)[O-])cc1 testedtarget="yeast expressing human caspase-1/ASC, counter-screen read-out" classification=N
molecule=COc1ccc(CNC(=O)c2c(C)oc3c2C(=O)c2ccccc2C3=O)cc1 testedtarget="yeast expressing human caspase-1/ASC, counter-screen read-out" classification=Y
molecule=CCSc1nsc(NC(=O)Nc2cccc(F)c2)n1 testedtarget="yeast expressing human caspase-1/ASC, counter-screen read-out" classification=Y
molecule=Cc1cccc(C(=O)O/N=C(\N)Cc2cccc3ccccc23)c1 testedtarget="yeast expressing human caspase-1/ASC, counter-screen read-out" classification=Y
molecule=CC(=O)N(/N=C1\Sc2ccccc2C1=O)c1ccccc1C testedtarget="yeast expressing human caspase-1/ASC, counter-screen read-out" classification=Y
molecule=CCOC(=O)c1ccc2c(c1)nc(COc1ccc(OC)cc1)n2CC testedtarget="yeast expressing human caspase-1/ASC, counter-screen read-out" classification=Y
molecule="c1ccc(C2Nc3ccccc3C3OCCCC23)cc1 (stereo not drawn)" testedtarget="yeast expressing human caspase-1/ASC, counter-screen read-out" classification=Y
molecule=Cc1ccc(NC(=O)c2nc(S(=O)(=O)Cc3ccccc3)ncc2Cl)cc1 testedtarget="yeast expressing human caspase-1/ASC, counter-screen read-out" classification=Y
molecule="CC(N)C(=O)OC(C)(C)Cc1ccc(Cl)cc1 (stereo not drawn)" testedtarget="yeast expressing human caspase-1/ASC, counter-screen read-out" classification=Y
molecule=CC(C)NC(=O)c1c(O)c2ccccc2[nH]c1=O testedtarget="yeast expressing human caspase-1/ASC, counter-screen read-out" classification=Y
molecule=O=C(Nc1cccc(Cl)c1)c1cnn2cccnc12 testedtarget="yeast expressing human caspase-1/ASC, counter-screen read-out" classification=Y
molecule=Cc1csc2nc(O)c(C(=O)NCCC3=CCCCC3)c(=O)n12 testedtarget="yeast expressing human caspase-1/ASC, counter-screen read-out" classification=Y
molecule=CCOC(=O)N1C(=O)C2(CCCCC2)N(c2ccccc2Cl)C1=S testedtarget="yeast expressing human caspase-1/ASC, counter-screen read-out" classification=Y
molecule="CCC1Nc2ncnc(N3CCN(c4ccccn4)CC3)c2N(Cc2ccc(Br)cc2)C1=O (stereo not drawn)" testedtarget="yeast expressing human caspase-1/ASC, counter-screen read-out" classification=Y
molecule="CCC1Nc2ncnc(N3CCN(c4ccccn4)CC3)c2N(Cc2ccc(Cl)cc2)C1=O (stereo not drawn)" testedtarget="yeast expressing human caspase-1/ASC, counter-screen read-out" classification=Y
molecule=O=c1c2cc(Cl)ccc2nc(-c2ccc([N+](=O)[O-])cc2)n1O testedtarget="yeast expressing human caspase-1/ASC, counter-screen read-out" classification=Y
molecule="CCCCCNC(=O)C(=O)C1C(=O)Nc2ccccc21 (stereo not drawn)" testedtarget="yeast expressing human caspase-1/ASC, counter-screen read-out" classification=Y
molecule=N#Cc1ccc(NC(=O)Nc2ccc(Cl)cc2)cc1 testedtarget="yeast expressing human caspase-1/ASC, counter-screen read-out" classification=Y
molecule=Oc1c(/C=N/c2ccccn2)sc2ccccc12 testedtarget="yeast expressing human caspase-1/ASC, counter-screen read-out" classification=Y
molecule="CCCC1CCC(c2ccc(OCC)cc2)=CC1=O (stereo not drawn)" testedtarget="yeast expressing human caspase-1/ASC, counter-screen read-out" classification=Y
molecule=CN(CCOc1ccccc1)c1ccc(S(=O)(=O)N2CCCCC2)cn1 testedtarget="yeast expressing human caspase-1/ASC, counter-screen read-out" classification=Y
molecule=CCN(CC)c1ccc2nc3ccccc3[n+](CC)c2c1 testedtarget="yeast expressing human caspase-1/ASC, counter-screen read-out" classification=Y
